B1: CPEB3 Ribozyme (parent)
chain: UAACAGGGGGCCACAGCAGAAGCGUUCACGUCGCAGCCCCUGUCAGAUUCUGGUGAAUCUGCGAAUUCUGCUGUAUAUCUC

# Variants of: B1
# protocol: self-cleavage, relative activity (ratio to wild type); higher = more cleavage; in vitro, sequencing
measuredQuantity: self-cleavage
Form: value (number only, do not type unit).

Check the records and state self-cleavage for A57G C79A
0.73

Check the records and state self-cleavage for C59U G63A
0.86

Check the records and state self-cleavage for C4A U41A
0.41

Check the records and state self-cleavage for G33C C79U
0.19

Check the records and state self-cleavage for C50A U76C
1.02
